The entries below come with measured IC50 values attached.
# System: A549
# ASSAY TEXT: Cytotoxicity against human A549 cells
# Assay type: functional, cell-based
The reply should be a number in nM, with the unit left off.

CC1=C[C@@H]2/C=C/C[C@H](C)/C=C(\C)[C@@H](O)[C@@H](O)/C=C/C(=O)[C@]23C(=O)N[C@@H](Cc2c[nH]c4ccccc24)[C@@H]3[C@@H]1C	2550

Consider the record given below.
IC50 reading for `CC1=C(C)[C@H]2[C@H](Cc3c[nH]c4ccccc34)NC(=O)[C@]23C(=O)/C=C/[C@H](O)[C@H](O)/C(C)=C/[C@@H](C)C/C=C/[C@H]3[C@@H]1O` : 2260
